- Test system: Pseudomonas aeruginosa
- Method: Colony colour or fluorescence on gelled medium of Example 1
- Format: cell-based
- Condition label: medium of Example 1, substrate 200 mg/l, 37° C., 24 or 48 hours, ambient light and UV 365 nm
Assay metric: peptidase activity revealed by colour or fluorescence of the colonies

Molecule | Result value
O=C(Nc1c[nH]c2ccc(Br)cc12)[C@@H]1CCCN1 [L-Pro-BIA] | no coloration
C[C@H](N)C(=O)Nc1c[nH]c2ccc(Br)cc12 [L-Ala-BIA] | no coloration
CC(C)C[C@H](N)C(=O)Nc1c[nH]c2ccc(Br)cc12 [L-Leu-BIA, 3-L-leucylamino-5-bromoindole] | no coloration
